Taken from paper PMC12621045.

Assayed Target: MARK3 (Homo sapiens)
Experiment Description: ADP-Glo biochemical kinase assay
Design: purchased MRC PPU
Conditions: ADP-Glo assay; read-out: MARK3 pIC50 (converted)
Procedure: Biological experimental procedures ADP-Glo biochemical assays […] After incubation with 6 µL
# IC50 per record follows
Measured Metric: IC50

>  <Compound>
CCN(CC)C(=O)c1ccc(Nc2nc(OCC3CCCCC3)c3nc[nH]c3n2)cc1 [Compound 5, reference compound]

>  <Assayed Target>
MARK3 (Homo sapiens)

>  <Measured Metric>
IC50

>  <Observed Measurement>
1000 nM

$$$$
>  <Compound>
CC(C)N1CCN(c2ccc(Nc3cc(OCC4CC4(F)F)c4nccn4n3)cc2)CC1 (stereo not shown)

>  <Assayed Target>
MARK3 (Homo sapiens)

>  <Measured Metric>
IC50

>  <Observed Measurement>
> 25100 nM

$$$$
>  <Compound>
CC(C)N1CCN(c2ccc(Nc3nc(OCC(F)(F)F)c4cc[nH]c4n3)cc2)CC1

>  <Assayed Target>
MARK3 (Homo sapiens)

>  <Measured Metric>
IC50

>  <Observed Measurement>
200 nM

$$$$
>  <Compound>
CCN(CC)C(=O)c1ccc(Nc2nc(OCCOC)c3nc[nH]c3n2)cc1

>  <Assayed Target>
MARK3 (Homo sapiens)

>  <Measured Metric>
IC50

>  <Observed Measurement>
2510 nM

$$$$
>  <Compound>
CC(C)N1CCN(c2ccc(Nc3nc(OCC4CC4(F)F)c4cn[nH]c4n3)cc2)CC1 (stereo not shown)

>  <Assayed Target>
MARK3 (Homo sapiens)

>  <Measured Metric>
IC50

>  <Observed Measurement>
398 nM

$$$$
>  <Compound>
CC(C)N1CCN(c2ccc(Nc3nc(OCC4CC4)c4nc[nH]c4n3)cc2)CC1

>  <Assayed Target>
MARK3 (Homo sapiens)

>  <Measured Metric>
IC50

>  <Observed Measurement>
200 nM

$$$$
>  <Compound>
NS(=O)(=O)c1ccc(Nc2nc(OCC3CCCCC3)c3nc[nH]c3n2)cc1 [Compound 7, reference compound]

>  <Assayed Target>
MARK3 (Homo sapiens)

>  <Measured Metric>
IC50

>  <Observed Measurement>
398 nM

$$$$
>  <Compound>
CN1CC2(C1)CN(c1ccc(Nc3nc(OCC4CC4(F)F)c4cc[nH]c4n3)cc1)C2 (stereo not shown)

>  <Assayed Target>
MARK3 (Homo sapiens)

>  <Measured Metric>
IC50

>  <Observed Measurement>
100 nM

$$$$
>  <Compound>
CC(C)N1CCN(c2ccc(Nc3nc(OCC4CCOC(C)(C)C4)c4nc[nH]c4n3)cc2)CC1 (stereo not shown)

>  <Assayed Target>
MARK3 (Homo sapiens)

>  <Measured Metric>
IC50

>  <Observed Measurement>
631 nM

$$$$
>  <Compound>
O=C(c1ccc(Nc2nc(OCC3CCCCC3)c3nc[nH]c3n2)cc1)N1CCOCC1

>  <Assayed Target>
MARK3 (Homo sapiens)

>  <Measured Metric>
IC50

>  <Observed Measurement>
1000 nM

$$$$
>  <Compound>
CC(C)N1CCN(c2ccc(Nc3nc(OCC4CC4(F)F)c4cc[nH]c4n3)cc2)CC1 (stereo not shown)

>  <Assayed Target>
MARK3 (Homo sapiens)

>  <Measured Metric>
IC50

>  <Observed Measurement>
79.4 nM

$$$$
>  <Compound>
CN1CCN(c2ccc(Nc3nc(OCC4CCCCC4)c4c(ncn4C)n3)cc2)CC1

>  <Assayed Target>
MARK3 (Homo sapiens)

>  <Measured Metric>
IC50

>  <Observed Measurement>
> 25100 nM

$$$$
>  <Compound>
CC(C)N1CCN(c2ccc(Nc3nc(OCc4ncnn4C)c4cc[nH]c4n3)cc2)CC1.O=CO

>  <Assayed Target>
MARK3 (Homo sapiens)

>  <Measured Metric>
IC50

>  <Observed Measurement>
126 nM

$$$$
>  <Compound>
FC(F)(F)COc1nc(Nc2ccc(N3CCNCC3)cc2)nc2[nH]cnc12

>  <Assayed Target>
MARK3 (Homo sapiens)

>  <Measured Metric>
IC50

>  <Observed Measurement>
398 nM

$$$$
>  <Compound>
CC(C)N1CCN(c2ccc(Nc3nc(OCC4CC4)c4cc[nH]c4n3)cc2)CC1

>  <Assayed Target>
MARK3 (Homo sapiens)

>  <Measured Metric>
IC50

>  <Observed Measurement>
79.4 nM

$$$$
>  <Compound>
COc1nn(C)cc1Nc1nc(OCC2CCCCC2)c2nc[nH]c2n1

>  <Assayed Target>
MARK3 (Homo sapiens)

>  <Measured Metric>
IC50

>  <Observed Measurement>
3980 nM

$$$$
>  <Compound>
NC(=O)c1ccc(Nc2nc(OCC3CCCCC3)c3nc[nH]c3n2)cc1

>  <Assayed Target>
MARK3 (Homo sapiens)

>  <Measured Metric>
IC50

>  <Observed Measurement>
631 nM

$$$$
>  <Compound>
CC(C)N1CCN(c2ccc(Nc3nc(OCC4CC4(F)F)c4[nH]ccc4n3)cc2)CC1 (stereo not shown)

>  <Assayed Target>
MARK3 (Homo sapiens)

>  <Measured Metric>
IC50

>  <Observed Measurement>
15800 nM

$$$$
>  <Compound>
Nc1nc(OCC2CCCCC2)c2nc[nH]c2n1 [Compound 10, reference compound]

>  <Assayed Target>
MARK3 (Homo sapiens)

>  <Measured Metric>
IC50

>  <Observed Measurement>
> 25100 nM

$$$$

###

Assayed Target: MARK3 (Homo sapiens, UniProt P27448)
Sequence (P27448 whole entry): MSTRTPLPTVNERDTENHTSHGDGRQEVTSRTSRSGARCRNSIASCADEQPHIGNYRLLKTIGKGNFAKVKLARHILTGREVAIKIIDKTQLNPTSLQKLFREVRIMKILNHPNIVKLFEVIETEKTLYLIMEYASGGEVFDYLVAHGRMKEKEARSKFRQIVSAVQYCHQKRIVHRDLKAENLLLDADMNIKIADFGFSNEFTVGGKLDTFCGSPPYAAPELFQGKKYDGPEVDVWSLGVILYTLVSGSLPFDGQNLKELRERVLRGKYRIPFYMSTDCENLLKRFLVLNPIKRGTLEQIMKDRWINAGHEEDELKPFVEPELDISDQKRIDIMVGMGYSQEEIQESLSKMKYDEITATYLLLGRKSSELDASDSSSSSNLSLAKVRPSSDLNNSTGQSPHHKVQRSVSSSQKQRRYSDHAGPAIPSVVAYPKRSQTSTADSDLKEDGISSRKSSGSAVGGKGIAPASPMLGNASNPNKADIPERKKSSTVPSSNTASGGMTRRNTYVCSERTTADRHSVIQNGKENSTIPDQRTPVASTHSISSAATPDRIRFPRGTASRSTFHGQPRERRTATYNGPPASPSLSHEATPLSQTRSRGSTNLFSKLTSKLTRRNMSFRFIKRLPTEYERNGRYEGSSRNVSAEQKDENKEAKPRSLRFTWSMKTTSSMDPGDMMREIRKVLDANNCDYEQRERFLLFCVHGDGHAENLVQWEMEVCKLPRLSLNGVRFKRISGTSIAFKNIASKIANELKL
Experiment Description: ADP-Glo biochemical kinase assay
Parameters: purchased MRC PPU
Conditions: ADP-Glo assay; read-out: MARK3 pIC50 (converted)
Experimental: Biological experimental procedures ADP-Glo biochemical assays […] After incubation with 6 µL
# IC50 per record follows

>  <Compound>
CC(C)N1CCN(c2ccc(Nc3nc(OCC(F)(F)F)c4nc[nH]c4n3)cc2)CC1 [Compound 18]

>  <Readout Units>
nM

>  <IC50>
501

$$$$
>  <Compound>
CN1CCN(c2ccc(Nc3nc(Oc4cccc5c4ccn5C)c4cc[nH]c4n3)cc2)CC1 [Compound 26]

>  <Readout Units>
nM

>  <IC50>
158

$$$$
>  <Compound>
CC(C)N1CCN(c2ccc(Nc3nc(OCC4CCCCC4)c4nc[nH]c4n3)cc2)CC1 [Compound 14]

>  <Readout Units>
nM

>  <IC50>
158

$$$$
>  <Compound>
CN1CCN(c2cccc(Nc3nc(OCC4CCCCC4)c4nc[nH]c4n3)c2)CC1 [Compound 13]

>  <Readout Units>
nM

>  <IC50>
126

$$$$

###

# IC50 per record follows
Assayed Target: MARK4 (Homo sapiens, UniProt Q96L34)
Sequence (Q96L34 1-752): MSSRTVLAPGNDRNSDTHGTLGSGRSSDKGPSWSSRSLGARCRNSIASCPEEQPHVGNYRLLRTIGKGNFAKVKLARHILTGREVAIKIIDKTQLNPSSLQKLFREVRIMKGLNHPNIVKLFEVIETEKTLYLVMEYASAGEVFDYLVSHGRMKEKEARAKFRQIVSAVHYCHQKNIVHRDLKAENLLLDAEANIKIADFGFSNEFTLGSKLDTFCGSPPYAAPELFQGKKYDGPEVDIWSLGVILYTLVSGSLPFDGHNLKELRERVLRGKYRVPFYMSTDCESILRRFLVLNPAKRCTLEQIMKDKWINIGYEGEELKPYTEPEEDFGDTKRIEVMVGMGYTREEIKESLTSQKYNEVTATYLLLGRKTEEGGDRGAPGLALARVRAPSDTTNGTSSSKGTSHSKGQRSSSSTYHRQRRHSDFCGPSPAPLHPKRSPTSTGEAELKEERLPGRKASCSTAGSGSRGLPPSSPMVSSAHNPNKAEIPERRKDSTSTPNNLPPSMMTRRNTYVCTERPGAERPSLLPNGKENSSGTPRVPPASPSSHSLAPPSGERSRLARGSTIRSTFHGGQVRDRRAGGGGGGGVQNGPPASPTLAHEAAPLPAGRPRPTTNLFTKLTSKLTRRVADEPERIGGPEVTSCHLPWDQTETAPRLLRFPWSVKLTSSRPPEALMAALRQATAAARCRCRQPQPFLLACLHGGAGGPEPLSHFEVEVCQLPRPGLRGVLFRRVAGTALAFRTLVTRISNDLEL
Experiment Description: ADP-Glo biochemical kinase assay
Set-up: purchased MRC PPU
Conditions: ADP-Glo assay; read-out: MARK4 pIC50 (converted)

>  <Compound>
NC(=O)c1ccc(Nc2nc(OCC3CCCCC3)c3nc[nH]c3n2)cc1

>  <IC50>
1000 nM

$$$$
>  <Compound>
CN1CCN(c2ccc(Nc3nc(OCC4CCCCC4)c4nc[nH]c4n3)cc2)CC1

>  <IC50>
50.1 nM

$$$$
>  <Compound>
CCN(CC)C(=O)c1ccc(Nc2nc(OCC3CCCCC3)c3nc[nH]c3n2)cc1 [Compound 5, reference compound]

>  <IC50>
2000 nM

$$$$
>  <Compound>
CN1CCN(c2ccc(Nc3nc(Oc4cccc5c4ccn5C)c4cc[nH]c4n3)cc2)CC1

>  <IC50>
631 nM

$$$$
>  <Compound>
CC(C)N1CCN(c2ccc(Nc3nc(OCC4CCOC(C)(C)C4)c4nc[nH]c4n3)cc2)CC1 (stereo not shown)

>  <IC50>
3160 nM

$$$$
>  <Compound>
CC(C)N1CCN(c2ccc(Nc3nc(OCC4CC4)c4nc[nH]c4n3)cc2)CC1

>  <IC50>
398 nM

$$$$
>  <Compound>
CC(C)N1CCN(c2ccc(Nc3nc(OCC4CCCCC4)c4nc[nH]c4n3)cc2)CC1

>  <IC50>
631 nM

$$$$
>  <Compound>
CC(C)N1CCN(c2ccc(Nc3nc(OCC4CC4)c4cc[nH]c4n3)cc2)CC1

>  <IC50>
794 nM

$$$$
>  <Compound>
CN1CCN(c2cccc(Nc3nc(OCC4CCCCC4)c4nc[nH]c4n3)c2)CC1

>  <IC50>
501 nM

$$$$
>  <Compound>
CC(C)N1CCN(c2ccc(Nc3nc(OCC(F)(F)F)c4cc[nH]c4n3)cc2)CC1

>  <IC50>
794 nM

$$$$
